assay summary: Ratio of drug level in brain to plasma in Sprague-Dawley rat at 3 mg/kg, iv or 10 mg/kg, po administered as single dose via gavage by LC-MS/MS analysis
Assay type: ADME, organism-based
study conditions: brain and plasma, read-out: BPR
Listed here: items and their measured Kp.
Answer using only a numeral; do not append any unit.

INSERT INTO measurements (molecule, reported_property, recorded_measurement) VALUES
  ('Nc1ccc(C(=O)N[C@H]2CC/C(=C\c3cccc(Oc4ccc(C(F)(F)F)cn4)c3)CC2)cn1 (centres undefined)', 'Kp', 0.6),
  ('Cc1cc(C(=O)N[C@H]2CC/C(=C\c3cccc(Oc4ccc(C(F)(F)F)cn4)c3)CC2)cnc1N (centres undefined)', 'Kp', 0.5),
  ('Nc1ncc(C(=O)N[C@H]2CC/C(=C\c3cccc(Oc4ccc(C(F)(F)F)cn4)c3)CC2)cn1 (centres undefined)', 'Kp', 0.8);

# evaluate next
Could you share which Kp value was measured for O=C(N[C@H]1CC/C(=C\c2cccc(Oc3ccc(C(F)(F)F)cn3)c2)CC1)c1cccnc1 (centres undefined) ?
1.5
